Test system: human red blood cells (hRBCs)
measurementDescription: Hemolytic assay
Format: cell-based
measurementSetup: hRBC suspension 4% in PBS, 2 h, 37 °C, hemoglobin release at 567 nm; 1% Triton X-100 = 100%
Where no end group is shown, it is not given here.
recordedMetric: HC50 (concentration at which 50% hemolysis was observed)

| substance | reportedResult |
| --- | --- |
| RWARRWARWWR-NH2 [5b] | > 500 µg/mL |
| RWIRRWIRWWRR-NH2 [7a] | 90 µg/mL |
| Ac-KWIKKWIKWWKK-NH2 [7d] | 160 µg/mL |
| RAWRRWWRAA-NH2 [4b] | > 500 µg/mL |
| RWLRRWLRWWRR-NH2 [8a] | 45 µg/mL |
| WRRWWRR-NH2 [1c] | > 500 µg/mL |
| RWWRRAWRA-NH2 [3a] | > 500 µg/mL |
| Ac-RWLRRWLRWWR-NH2 [5f] | 65 µg/mL |
| Ac-KWAKKWAKWWKK-NH2 [6d] | 345 µg/mL |
| RWWRRAWR-NH2 [2b] | > 500 µg/mL |
| H-RAWRRAWRAW-NH2 [4a] | > 500 µg/mL |
| RAWRRWWRA-NH2 [3b] | > 500 µg/mL |
| Ac-RWARRWARWWRR-NH2 [6c] | 110 µg/mL |
| RWIRRWIRWWR-NH2 [5c] | > 500 µg/mL |
| RWARRWWRA-NH2 [3c] | > 500 µg/mL |
| H-RAWRRWWARA-NH2 [4g] | > 500 µg/mL |
| RWWRAAWRR-NH2 [3d] | > 500 µg/mL |
| Ac-RWLRRWLRWWRR-NH2 [8c] | 30 µg/mL |
| H-RWWRRWR-NH2 [1e] | > 500 µg/mL |
| KWLKKWWKWWKK-NH2 [8e] | 240 µg/mL |
| H-RAWRRWARAW-NH2 [4d] | > 500 µg/mL |
| RAWRAWWRRA-NH2 [4f] | > 500 µg/mL |
| RWWRRAWAR-NH2 [3e] | > 500 µg/mL |
| RWWRRAWRAA-NH2 [4c] | > 500 µg/mL |
| KWAKKWWKWWKK-NH2 [6e] | 360 µg/mL |
| KWIKKWIKWWKK-NH2 [7b] | 460 µg/mL |
| RWLRRWLRWWR-NH2 [5d] | 130 µg/mL |
| RRWWRRW-NH2 [1b] | > 500 µg/mL |
| KWAKKWAKWWKK-NH2 [6b] | > 500 µg/mL |
| RRWRRWW-NH2 [1d] | > 500 µg/mL |
| Ac-KWLKKWLKWWKK-NH2 [8d] | 145 µg/mL |
| ARRWWRRW-NH2 [2e] | > 500 µg/mL |
| WRRWARRW-NH2 [2d] | > 500 µg/mL |
| RAARRWARWWR-NH2 [5a] | > 500 µg/mL |
| Ac-RWIRRWIRWWRR-NH2 [7c] | 40 µg/mL |
| RWARRWWR-NH2 [2c] | > 500 µg/mL |
| RWWRRWAR-NH2 [2a] | > 500 µg/mL |
| H-AAWRRWWRRA-NH2 [4h] | > 500 µg/mL |
| RWRRWWR-NH2 [1a] | > 500 µg/mL |
| RWARRAWRAW-NH2 [4e] | > 500 µg/mL |
| AWWRRAWRR-NH2 [3f] | > 500 µg/mL |
| RWARRWARWWRR-NH2 [6a] | 230 µg/mL |
| Ac-RWIRRWIRWWR-NH2 [5e] | 60 µg/mL |
